We begin with a simple list: items and their reported pIC50.
biological target: TYK2 (Homo sapiens, UniProt P29597); construct: The kinase domain of humanTYK2 was amplified from A549 mRNA; His tag (from pBlueBacHis2A vector; nickel chelate purification) (N); made in house; host or cells: baculovirus; virus made in Sf9, large-scale expression in High Five insect cells; assay: TYK2 kinase domain capture-based ELISA kinase assay; format: biochemical; details: Table 6; inhibit 50% of activity at 50 μM
pIC50: −log10 of the molar value.

See these solved cases before continuing.
{"compound": "Clc1ccccc1-c1cn2ccnc2c(NCc2ccccn2)n1", "pIC50": "< 4.30"}
{"compound": "CCN(CCO)c1ccc(Nc2nc(Br)cn3ccnc23)cc1 [drawing 101]", "pIC50": "> 4.30"}
{"compound": "Fc1ccccc1-c1cn2ccnc2c(NCCc2cccnc2)n1", "pIC50": "< 4.30"}
{"compound": "CCN(CCO)c1ccc(Nc2nc(-c3cccc4ccccc34)cn3ccnc23)cc1 [drawing 94]", "pIC50": "< 4.30"}
{"compound": "CN1CCN(c2nc(-c3cccnc3)cn3ccnc23)CC1", "pIC50": "< 4.30"}
{"compound": "CCCC/C=C/c1cn2ccnc2c(NCCc2cccnc2)n1", "pIC50": "< 4.30"}
{"compound": "Oc1ccc(-c2cn3ccnc3c(N3CCOCC3)n2)cc1 [drawing 90]", "pIC50": "< 4.30"}
{"compound": "COc1ccc(Nc2nc(-c3ccccc3OC)cn3ccnc23)cn1", "pIC50": "> 4.30"}
{"compound": "Oc1cccc(-c2cn3ccnc3c(N3CCOCC3)n2)c1", "pIC50": "< 4.30"}
{"compound": "FC(F)(F)Oc1cccc(-c2cn3ccnc3c(Nc3ccccc3)n2)c1", "pIC50": "< 4.30"}

QUERY: Report pIC50 for c1ccc(Nc2nc(-c3ccco3)cn3ccnc23)cc1 tested on TYK2 (Homo sapiens, UniProt P29597).
RESULT: > 4.30

QUERY: Report pIC50 for CCNc1nc(-c2ccc(O)c(OC)c2)cn2ccnc12 tested on TYK2 (Homo sapiens, UniProt P29597).
RESULT: < 4.30

QUERY: Report pIC50 for c1ccc2cc(-c3cn4ccnc4c(Nc4ccc(N5CCOCC5)cc4)n3)ccc2c1 tested on TYK2 (Homo sapiens, UniProt P29597).
RESULT: < 4.30

QUERY: Report pIC50 for c1ccc(CN2CC[C@@H](Nc3nc(-c4ccc5c(c4)OCO5)cn4ccnc34)C2)cc1 tested on TYK2 (Homo sapiens, UniProt P29597).
RESULT: > 4.30

QUERY: Report pIC50 for CC(=O)Nc1cccc(-c2cn3ccnc3c(Nc3ccccc3)n2)c1 tested on TYK2 (Homo sapiens, UniProt P29597).
RESULT: > 4.30

---

We begin with a simple list: items and their reported IC50.
target: JAK1 (Homo sapiens, UniProt P23458); construct: The kinase domain of humanJAK1 was amplified from U937mRNA; His tag (from pFastBac HTb vector; nickel chelate purification) (N); made in house; host or cells: baculovirus; virus made in Sf9, large-scale expression in High Five insect cells; assay: JAK1 kinase domain capture-based ELISA kinase assay; format: biochemical; conditions: Table 6; inhibit 50% of activity at 50 μM
Sequence (P23458 875-1153 limits assumed): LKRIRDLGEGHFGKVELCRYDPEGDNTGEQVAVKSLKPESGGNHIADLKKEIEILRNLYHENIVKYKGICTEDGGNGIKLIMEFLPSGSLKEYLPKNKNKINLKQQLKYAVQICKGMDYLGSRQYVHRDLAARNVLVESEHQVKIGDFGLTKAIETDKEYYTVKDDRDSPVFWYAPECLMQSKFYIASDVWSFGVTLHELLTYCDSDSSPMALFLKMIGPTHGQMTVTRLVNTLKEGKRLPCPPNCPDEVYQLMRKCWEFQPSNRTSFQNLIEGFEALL

See these solved cases before continuing.
{"molecule": "c1cncc(CCNc2nc(-c3ccco3)cn3ccnc23)c1", "target": "JAK1 (Homo sapiens, UniProt P23458)", "IC50": "> 50 µM"}
{"molecule": "c1ccc(-c2cn3ccnc3c(NCc3ccncc3)n2)cc1", "target": "JAK1 (Homo sapiens, UniProt P23458)", "IC50": "< 50 µM"}
{"molecule": "c1cn2cc(-c3ccc4c(c3)OCO4)nc(Nc3ccc(N4CCOCC4)cc3)c2n1", "target": "JAK1 (Homo sapiens, UniProt P23458)", "IC50": "< 50 µM"}
{"molecule": "CC(=O)Nc1cccc(-c2cn3ccnc3c(Nc3ccccc3)n2)c1", "target": "JAK1 (Homo sapiens, UniProt P23458)", "IC50": "< 50 µM"}
{"molecule": "O=C(NCCO)c1ccc(-c2cn3ccnc3c(Nc3ccccc3)n2)cc1", "target": "JAK1 (Homo sapiens, UniProt P23458)", "IC50": "< 50 µM"}

QUERY: # get_value(readout='IC50', item= CCN(CCO)c1ccc(Nc2nc(-c3ccccc3Cl)cn3ccnc23)cc1 )
RESULT: < 50 µM

QUERY: # get_value(readout='IC50', item= CCN(CCO)c1ccc(Nc2nc(Br)cn3ccnc23)cc1 [drawing 101] )
RESULT: < 50 µM

QUERY: # get_value(readout='IC50', item= c1cc(-c2cn3ccnc3c(Nc3ccc(N4CCOCC4)cc3)n2)ccn1 [drawing 120] )
RESULT: < 50 µM

QUERY: # get_value(readout='IC50', item= CN(C)c1ccc(-c2cn3ccnc3c(NC3CC3)n2)cc1 )
RESULT: > 50 µM

QUERY: # get_value(readout='IC50', item= O=C(O)c1ccc(-c2cn3ccnc3c(N3CCN(c4ccccn4)CC3)n2)cc1 )
RESULT: < 50 µM

QUERY: # get_value(readout='IC50', item= O=C(O)c1ccc(-c2cn3ccnc3c(N3CCN(c4ccncc4)CC3)n2)cc1 )
RESULT: > 50 µM

QUERY: # get_value(readout='IC50', item= COc1ccc(Nc2nc(-c3c(C)cccc3C)cn3ccnc23)cn1 )
RESULT: > 50 µM

QUERY: # get_value(readout='IC50', item= CCNc1nc(-c2ccc(N(C)C)cc2)cn2ccnc12 )
RESULT: < 50 µM

QUERY: # get_value(readout='IC50', item= Oc1cccc(-c2cn3ccnc3c(N3CCOCC3)n2)c1 )
RESULT: > 50 µM

QUERY: # get_value(readout='IC50', item= COc1ccccc1-c1cn2ccnc2c(Nc2ccc(CCO)cc2)n1 )
RESULT: < 50 µM

QUERY: # get_value(readout='IC50', item= COc1ccc(Nc2nc(-c3ccccc3F)cn3ccnc23)cn1 )
RESULT: < 50 µM

QUERY: # get_value(readout='IC50', item= O=C(O)c1cccc(-c2cn3ccnc3c(Nc3ccc(N4CCOCC4)cc3)n2)c1 )
RESULT: < 50 µM

QUERY: # get_value(readout='IC50', item= CN(C)CCNC(=O)c1cccc(-c2cn3ccnc3c(Nc3ccc(Cl)cc3)n2)c1 )
RESULT: < 50 µM

QUERY: # get_value(readout='IC50', item= CCN(CCO)c1ccc(Nc2nc(-c3cccc4ccccc34)cn3ccnc23)cc1 [drawing 94] )
RESULT: < 50 µM

---

Biological target: TYK2 (Homo sapiens, UniProt P29597)
Construct: The kinase domain of humanTYK2 was amplified from A549 mRNA; His tag (from pBlueBacHis2A vector; nickel chelate purification) (N); made in house; host or cells: baculovirus; virus made in Sf9, large-scale expression in High Five insect cells
Sequence (P29597 897-1176 limits assumed): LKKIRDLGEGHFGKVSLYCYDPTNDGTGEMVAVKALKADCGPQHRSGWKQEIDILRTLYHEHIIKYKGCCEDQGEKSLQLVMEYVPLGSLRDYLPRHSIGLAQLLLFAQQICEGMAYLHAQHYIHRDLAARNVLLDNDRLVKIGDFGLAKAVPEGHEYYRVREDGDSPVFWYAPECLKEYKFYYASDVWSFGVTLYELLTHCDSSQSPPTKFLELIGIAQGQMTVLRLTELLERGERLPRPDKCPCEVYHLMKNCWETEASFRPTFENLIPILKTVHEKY
Assay: TYK2 kinase domain capture-based ELISA kinase assay
Format: biochemical
Conditions: Table 6; inhibit 50% of activity at 50 μM
pIC50: −log10 of the molar value.
measure: pIC50

{"molecule": "c1coc(-c2cn3ccnc3c(Nc3ccc4[nH]ccc4c3)n2)c1", "target": "TYK2 (Homo sapiens, UniProt P29597)", "pIC50": "> 4.30"}
{"molecule": "CC(=O)c1ccc(-c2cn3ccnc3c(Nc3ccccc3)n2)s1", "target": "TYK2 (Homo sapiens, UniProt P29597)", "pIC50": "> 4.30"}
{"molecule": "CN(C)CCNC(=O)c1cccc(-c2cn3ccnc3c(Nc3ccc(Cl)cc3)n2)c1", "target": "TYK2 (Homo sapiens, UniProt P29597)", "pIC50": "< 4.30"}

QUERY: # get_value(readout='pIC50', item= COc1ccc(Nc2nc(-c3ccccc3F)cn3ccnc23)cn1 )
RESULT: < 4.30

QUERY: # get_value(readout='pIC50', item= c1cncc(-c2cn3ccnc3c(Nc3ccc(N4CCOCC4)cc3)n2)c1 [drawing 131] )
RESULT: > 4.30

QUERY: # get_value(readout='pIC50', item= Oc1ccc(-c2cn3ccnc3c(Nc3ccccc3)n2)cc1 )
RESULT: < 4.30

QUERY: # get_value(readout='pIC50', item= COc1cc(-c2cn3ccnc3c(Nc3ccccc3)n2)cc(OC)c1OC )
RESULT: < 4.30

QUERY: # get_value(readout='pIC50', item= O=C(O)c1ccc(-c2cn3ccnc3c(N3CCN(c4ccccn4)CC3)n2)cc1 )
RESULT: < 4.30

QUERY: # get_value(readout='pIC50', item= O=C(O)c1ccc(-c2cn3ccnc3c(N3CCN(c4ccncc4)CC3)n2)cc1 )
RESULT: < 4.30

QUERY: # get_value(readout='pIC50', item= COc1ccc(Nc2nc(-c3c(C)cccc3C)cn3ccnc23)cn1 )
RESULT: < 4.30

QUERY: # get_value(readout='pIC50', item= CCCC/C=C/c1cn2ccnc2c(Nc2ccc(N(CC)CCO)cc2)n1 )
RESULT: > 4.30
